# experiment: chemical genetic growth profiling, strain panel (AID 1159580);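 also: tested at 20 µM; growth read once vehicle control cultures reached saturation at 30 °C; 1 = growth at the plate median or of vehicle wells; lower values mean less growth of the strain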
# experimental.setup: S. cerevisiae deletion strains, growth OD, locus YPL153C, strain RAD53, hits give low values
Out of some 5,500 compounds screened, about 2,000 (36%) were called active. Inconclusive results (about 18%) are left out. Some of the results follow.
measured.metric: normalized growth
Enter the number alone.

Some molecules with recorded normalized growth:
{"columns": ["molecule", "number"],
 "data": [
  ["O=C(Nc1cc(C(F)(F)F)cc(C(F)(F)F)c1)C(Cl)(Cl)Cl", 0.889],
  ["Clc1ccccc1-c1csc(-c2cccnc2)n1", 0.563]
]}

The molecule listed as CN(C)c1ccc(/C=C/c2ccc3ccccc3[n+]2C)cc1 has a reported normalized growth of 0.833

The molecule listed as Cc1ccc(NC(=S)C(C#N)C(=O)N2CCOCC2)c(C)c1 (stereo unspecified) has a reported normalized growth of 1.03

The molecule listed as Cc1ccc(-c2nc(NS(=O)(=O)c3cccc4nonc34)sc2C)cc1Cl has a reported normalized growth of 0.992

The molecule listed as Clc1ccccc1-c1csc(-c2ccncc2)n1 has a reported normalized growth of 0.925

The molecule listed as Cc1ccc(S(=O)(=O)Nc2nc(-c3ccc(C)c(Cl)c3)c(C)s2)cc1 has a reported normalized growth of 1.01

---

# experiment: chemical genetic growth profiling, strain panel (AID 1159580);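 also: tested at 20 µM; growth read once vehicle control cultures reached saturation at 30 °C; 1 = growth at the plate median or of vehicle wells; lower values mean less growth of the strain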
# experimental.setup: S. cerevisiae deletion strains, growth OD, locus YDL134C, strain PPH21, hits give low values
Hit rate of the full screen: of about 5,500 compounds, about 2,000 (36%) were called active. Another 18% or so got no clear call; they are omitted. This is one part of the list.
measured.metric: normalized growth
Enter the number alone.

{"columns": ["compound", "normalized growth"],
 "data": [
  ["CNc1ccc(C(=O)CC(O)CCC(C)C2OC(=O)CC(O)CC(=O)CC(O)CC(O)CC(O)CC(O)CC3(O)CC(O)C(C(=O)OC)C(CC(OC4OC(C)C(O)C(N)C4O)/C=C/C=C/C=C/C=C/C=C/C=C/C=C/C2C)O3)cc1 (configuration not stated)", 0.0946]
]}

Now, please, on to the next compound.
The compound listed as CC1OC(O[C@H]2/C=C/C=C/C=C/C=C/C=C/C=C/C=C/[C@H](C)[C@@H](O)[C@@H](C)[C@H](C)OC(=O)CC(O)CC(O)CCC(O)C(O)CC(O)C[C@]3(O)C[C@H](O)C(C(=O)O)C(C2)O3)C(O)[C@H](N)C1O (some centres not stated) has a reported normalized growth of 0.986

---

# experiment: chemical genetic growth profiling, strain panel (AID 1159580);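 also: tested at 20 µM; growth read once vehicle control cultures reached saturation at 30 °C; 1 = growth at the plate median or of vehicle wells; lower values mean less growth of the strain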
# experimental.setup: S. cerevisiae deletion strains, growth OD, locus YDR334W, strain swr1, hits give low values
Among all 5,500 compounds or so, about 2,000 (36%) were called active. About 18% were inconclusive and are not listed. The list shows a part of the results.
Lab note: compare normalized growth with 1, writing Yes if less and No if equal or more.

Known results for compounds:
{"columns": ["compound", "class.assignment"],
 "data": [
  ["O=C(O)[C@@H](S)[C@@H](S)C(=O)O", "Yes"],
  ["NC(N)=NCCN1CCCCCCC1", "No"],
  ["CC(=O)C1CCC2C3CCC4C[C@H](O)CCC4(C)C3C[C@H](O)C12C (stereo partly drawn)", "Yes"]
]}

Now consider a different compound.
Query :: Hi there! Is normalized growth for Oc1c(Cl)cc(Cl)c(Cl)c1Cc1c(O)c(Cl)cc(Cl)c1Cl below 1, do you know?
Result :: Yes

Data credit: PubChem BioAssay AID1159580
